# Experimental System: T1, CD27 protein (His-tagged, Sino Biological Inc. 10039-H08B1) (human, UniProt P26842 20-192)
# T1 construct: bought protein coated on ELISA plates; also called TNFRSF7; not shown: His tag
# T1 sequence (looked up): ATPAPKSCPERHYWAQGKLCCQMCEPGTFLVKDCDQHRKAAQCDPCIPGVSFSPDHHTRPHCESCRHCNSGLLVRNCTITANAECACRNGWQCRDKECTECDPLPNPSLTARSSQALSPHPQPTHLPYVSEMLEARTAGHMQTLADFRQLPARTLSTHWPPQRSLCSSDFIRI
# Test Description: ELISA, coated His-tagged CD27; note: test concentration or dose not given here

- Binder: "P018.S.08.A.F01 (antibody, V domains shown, V regions on human Ig constant parts; also called AB27_140) VH: QSVEESGGRLVTPGTPLTLTCTVSGSDISGYALGWVRQAPGKGLEYIGVIAADGNAYYASWAKGRFTISRTSTTVDLKMTSLTTEDTATYFCARGYSSGWGTYGYFDLWGQGTLVTVSS VL: DIVMTQTPASVSAAVGGTVTIKCQASEDIYSYLAWYQQKPGQPPKLLIYRASTLESGVPSRFKGSGSGTQFTLTISDLESADAATYYCQSYYYSHSTTYSNVFGGGTEVVVK"
  ELISA [abs. corr.]: "3.1 abs. corr."
- Binder: "P018.S.06.A.A05 (antibody, V domains shown, V regions on human Ig constant parts; also called AB27_97) VH: QSLEESGGRLVTPGTPLTLTCTVSGIDLSSYAMGWVRQAPGKGLELIGLIYASNRTHYATWAKGRFTISKSSTTVDLKATSLTTEDTATYFCGRYGRGSGGYYYGMDLWGPGTLVTVSS VL: DVVMTQTPASVEAAVGGTVTIKCQASQSGDNYLSWYQQKSGQPPKLLIYLASTLASGVPSRFRGSRSGTEYTLTISDLESADAATYYCQNYCAGSGVCVGVAFGGGTEVVVK"
  ELISA [abs. corr.]: "2.95 abs. corr."
- Binder: "P018.S.09.A.A02 (antibody, V domains shown, V regions on human Ig constant parts; also called AB27_143) VH: QSVEESGGRLVTPGTPLTLTCTASGFSLSNFYMSWVRQAPGKGLEWIGIISTGGSAYYASWAKGRFTSSKTSTTVDLQITSPTTEDTATYFCARGSGTDGAWLYYGIDLWGPGTLVTVSS VL: DVVMTQTPASVEAAVGGTVTIKCQASENIGHALAWYQQKPGQPPKLLIYRTSTLASGVPSRFSGSGSGTQFSLTISDLDSADAATYFCQINYGGGSGGYFAFGGGTEVVVK"
  ELISA [abs. corr.]: "2.95 abs. corr."
- Binder: "P018.S.10.A.E02 (antibody, V domains shown, V regions on human Ig constant parts; also called AB27_176) VH: QEQLEESGGDLVKPEGSLTLTCTASGFSFSSSFYMCWVRQAPGKGLEWVACIYAEDSDYTYYASWAKGRFTISKTSSTTVTLQMTSLTAADTATYFCAREILYPTNTDSFDLWGPGTLVTVSS VL: AFELTQTPSSVEAAVGGTVTIKCQASESFSSRLAWYQQKPGQPPKLLIYRASTLASGVPSRFKGSGSGTDFTLTISDLESADAAAYYCQAYVGISSGGYAFGGGTEVVVG"
  ELISA [abs. corr.]: "3.02 abs. corr."
- Binder: "P018.S.09.A.G06 (antibody, V domains shown, V regions on human Ig constant parts; also called AB27_159) VH: QSVEESGGRLVTPGTPLTLTCTASGFSLSNYHMSWVRQAPGKGLEWIGIIYAGSDSTWYASWAKGRFTISKTSTTVDLKITSPTTEDTATYFCARQPGGGASDTQLDLWGQGTLVTVSS VL: AAVLTQTASPVSAAVGGTVTINCQSSQNIFDNNQLSWFQHKSGQSPKLLIYRASTLASGVPSRFKGSGSGTQFTLTISDVQSDDAATYYCLGGYSSSSDTVFGGGTEVVVK"
  ELISA [abs. corr.]: "3.12 abs. corr."
